For each entry below, report its α4β7 cell (Hu) IC50 value.
# test_target: α4β7 integrin on human cells (human, UniProt P13612 34-1032; P26010 20-798)
# procedure_text: cell-based or functional assay
Bridge positions count the residues as written; N and C are the ends. Square brackets hold non-standard residues; d marks the D form. 2Nal = N[C@@H](Cc1ccc2ccccc2c1)C(=O)O; NMeR = CN[C@@H](CCCNC(=N)N)C(=O)O; Pen = CC(C)(S)[C@H](N)C(=O)O; Dab = NCC[C@H](N)C(=O)O

XRSDTLXWK ((Ac-Pen-(N-Me-R)-S-D-T-L-Pen-W-k-OH)2-DIG; disulfide) [SEQ ID NO 76] = > 10 nM
Ac-[Pen][NMeR]SDTL[Pen][2Nal][dR][dK]-NH2 (disulfide 1-7 (inferred); also: homodimer via DIG) [SEQ ID NO 120] = > 1000 nM

Would you kindly look at the next entry?
Need α4β7 cell (Hu) IC50, item Ac-[Pen][NMeR]SDTL[Pen]WE[Dab]-NH2 (disulfide 1-7 (inferred); also: homodimer linked by DIG) [SEQ ID NO 97]
≤ 10 nM
